# System: PC-3
# PROTOCOL SUMMARY: cells
# EXPERIMENTAL SETUP: Homo sapiens, PC-3, 72 h
# Description: Cytotoxicity against human PC3 cells after 72 hrs by MTT assay
PROPERTY LABEL: IC50 (µM)
Answer in µM, number only, no unit symbol.

Tested on PC-3: COC1(c2cc(F)cc(OCCCN3CCc4c(c5cc(F)ccc5n4Cc4ccc(S(C)(=O)=O)cc4)C3)c2)CCOCC1 . Observed IC50: 8

More entries:
Tested on PC-3: COc1ccc2c(c1)c1c(n2Cc2ccc(S(C)(=O)=O)cc2)CCN(CCCOc2cc(F)cc(C3(OC)CCOCC3)c2)C1 . Observed IC50: 8

---

Sequence of the target: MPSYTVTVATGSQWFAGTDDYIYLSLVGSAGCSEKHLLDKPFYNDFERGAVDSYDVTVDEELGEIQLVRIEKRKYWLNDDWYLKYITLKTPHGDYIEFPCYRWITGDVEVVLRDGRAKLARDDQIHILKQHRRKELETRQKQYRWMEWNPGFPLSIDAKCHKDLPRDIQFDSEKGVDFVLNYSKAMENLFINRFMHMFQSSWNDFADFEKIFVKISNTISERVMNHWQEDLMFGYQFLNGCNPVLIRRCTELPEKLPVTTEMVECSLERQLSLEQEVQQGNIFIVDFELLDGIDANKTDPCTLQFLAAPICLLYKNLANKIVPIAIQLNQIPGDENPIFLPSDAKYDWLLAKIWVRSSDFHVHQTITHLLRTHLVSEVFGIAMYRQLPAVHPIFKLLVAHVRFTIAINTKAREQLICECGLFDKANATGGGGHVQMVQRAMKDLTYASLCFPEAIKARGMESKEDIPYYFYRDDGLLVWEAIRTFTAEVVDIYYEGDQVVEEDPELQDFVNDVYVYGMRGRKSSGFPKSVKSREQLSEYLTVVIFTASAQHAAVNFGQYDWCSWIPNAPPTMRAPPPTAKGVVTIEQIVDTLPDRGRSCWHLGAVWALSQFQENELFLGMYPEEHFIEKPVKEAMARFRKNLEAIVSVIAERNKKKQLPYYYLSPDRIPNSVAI
Collected pIC50 values appear next to each entry.
Reminder that pIC50 is minus the log10 of a molar concentration.

Example results:
The recorded pIC50 for COc1ccc2c(c1)c1c(n2C(=O)c2ccccc2F)CCN(CCCOc2cc(F)cc(C3(OC)CCOCC3)c2)C1 is 4.41

The recorded pIC50 for COc1ccc2c(c1)c1c(n2C(=O)c2ccccc2)CCN(CCCOc2cc(F)cc(C3(OC)CCOCC3)c2)C1 is 4.18

The recorded pIC50 for COC1(c2cc(F)cc(OCCCN3CCc4c(c5ccccc5n4C(=O)c4ccccc4)C3)c2)CCOCC1 is 4.03

The recorded pIC50 for COc1ccc2c(c1)c1c(n2C(=O)c2c(Cl)cc(Cl)cc2Cl)CCN(CCCOc2cc(F)cc(C3(OC)CCOCC3)c2)C1 is 4.34

The recorded pIC50 for COc1ccc2c(c1)c1c(n2C(=O)c2ccc(Cl)cc2)CCN(CCCOc2cc(F)cc(C3(OC)CCOCC3)c2)C1 is 4.23

More entries:
The recorded pIC50 for COC1(c2cc(F)cc(OCCCN3CCc4c(c5cc(F)ccc5n4Cc4ccc(S(C)(=O)=O)cc4)C3)c2)CCOCC1 is 4.53

The recorded pIC50 for COc1ccc2c(c1)c1c(n2C(=O)c2ccc(Br)cc2)CCN(CCCOc2cc(F)cc(C3(OC)CCOCC3)c2)C1 is 4.32

The recorded pIC50 for COc1ccc2c(c1)c1c(n2C(=O)c2cccc(F)c2)CCN(CCCOc2cc(F)cc(C3(OC)CCOCC3)c2)C1 is 4.42

The recorded pIC50 for COc1ccc2c(c1)c1c(n2C(=O)c2ccc(F)cc2)CCN(CCCOc2cc(F)cc(C3(OC)CCOCC3)c2)C1 is 4.24
